Measured values drawn from patent US11059845B2 for this set.

biological target: human TLR2 (Homo sapiens, UniProt O60603); construct: host or cells: recombinant HEK-293-TLR cell lines (hTLR2, NFkB-SEAP reporter); assay: TLR2 reporter assay (HEK-293-TLR, SEAP); assay type: cell-based; conditions: 5 μM; SEAP reporter optical density
Sequence (O60603 21-784): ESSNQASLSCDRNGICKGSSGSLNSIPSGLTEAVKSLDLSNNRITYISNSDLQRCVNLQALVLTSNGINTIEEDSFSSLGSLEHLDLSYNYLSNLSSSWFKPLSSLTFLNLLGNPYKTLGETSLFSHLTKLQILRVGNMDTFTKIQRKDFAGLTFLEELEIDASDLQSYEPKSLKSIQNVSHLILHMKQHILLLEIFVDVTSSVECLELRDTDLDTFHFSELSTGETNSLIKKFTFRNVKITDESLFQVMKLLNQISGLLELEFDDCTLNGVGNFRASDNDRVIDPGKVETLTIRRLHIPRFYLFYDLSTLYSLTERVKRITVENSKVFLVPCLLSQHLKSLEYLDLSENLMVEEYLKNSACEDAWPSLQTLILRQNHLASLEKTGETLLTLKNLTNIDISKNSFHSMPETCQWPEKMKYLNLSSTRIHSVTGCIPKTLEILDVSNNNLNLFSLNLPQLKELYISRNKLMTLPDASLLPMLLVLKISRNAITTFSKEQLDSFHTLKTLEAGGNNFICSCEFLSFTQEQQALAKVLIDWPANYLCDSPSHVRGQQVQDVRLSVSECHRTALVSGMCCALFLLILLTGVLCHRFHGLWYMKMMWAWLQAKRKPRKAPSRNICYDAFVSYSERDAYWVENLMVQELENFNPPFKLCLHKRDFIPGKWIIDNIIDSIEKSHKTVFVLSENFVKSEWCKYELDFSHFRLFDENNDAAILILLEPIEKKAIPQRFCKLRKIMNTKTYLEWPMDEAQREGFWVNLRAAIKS
MEASUREMENT_TYPE: OD after addition of 5 μM test article

| COMPOUND | MEASUREMENT_TYPE | RESULT |
| --- | --- | --- |
| CC[C@H]1OC(=O)[C@H](C)[C@@H](O[C@H]2C[C@@](C)(OC)[C@@H](O)[C@H](C)O2)[C@H](C)[C@@H](O[C@@H]2O[C@H](C)C[C@H](N(C)C)[C@H]2O)[C@](C)(O)C[C@@H](C)CN(C)[C@H](C)[C@@H](O)[C@]1(C)O [Azithromycin, reference compound] | OD after addition of 5 μM test article | 0.029 |
| CC[C@H]1OC(=O)[C@H](C)[C@@H](O[C@H]2CC(N(C)C)[C@H](O)C(C)O2)[C@H](C)[C@@H](O)[C@](C)(O)C[C@@H](C)N(C)C[C@H](C)[C@@H](O)[C@]1(C)O (some centres unmarked) | OD after addition of 5 μM test article | 0.054 |
